Origin of values: patent US20230287088A1

target: T1, Mouse-Fc-tagged SARS-CoV2 S1-RBD (Sino Biologicals) recombinant protein (SARS-CoV-2, UniProt P0DTC2 319-541)
T1 construct: domain: S1-RBD
assay.overview: competition ELISA: blocks S1-RBD-mFc binding to coated ACE-2 ECD
measured.attribute: IC50 (µg/mL)
Enter your answer as a number in µg/mL; do not include the unit.

IC50 recorded for this binder, P043.A.00020.D06 (protein sample ID 444) (antibody, V domains shown) VH: QSVEESGGRLVTPGTPLTLTCTVSGFSLSSYAMNWVRQAPGKGLEWIGIISSSGSTYYASWAKGRFTISKTSTTVDLKITSPTTEDTATYFCARVGAGYAGYGYDNYYGMDPWGPGTLVTVSS VL: AIQMTQSPSSLAASVGDTVTITCKASEDIGYGLNWYQQKLGIAPKLLIYGANTLESGVPSRFSGSGSETDYTLTISSVQAEDAGIYYCQQGYSTPLTFGAGTKVEIK , is 0.0603

IC50 recorded for this binder, P043.A.00023.E05 (antibody, V domains shown, also called 443; protein sample ID 443) VH: QSLEESGGRLVTPGTPLTLTCTVSGFSLSSYAMSWVRQAPGKGLEWIGIISSSGSTYYASWAKGRFTISKTSTTVDLKITSPTTEDTATYFCARDASSRGYYYYYGMDPWGPGTLVTVSS VL: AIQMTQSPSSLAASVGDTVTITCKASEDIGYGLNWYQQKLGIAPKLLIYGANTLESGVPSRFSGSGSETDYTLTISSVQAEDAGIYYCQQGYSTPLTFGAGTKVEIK , is 0.0349

IC50 recorded for this binder, P043.A.00109.B12 (antibody, V domains shown, also called 468; protein sample ID 468) VH: QSLEESGGGLVKPEGSLTLTCKASGFDLNTYYYMCWVRQAPGKGLEWIACIATSDSGHTAYASWARGRFTISKTSSTTVTLQMTGLTAADTATYFCARGGRSVGDGVDLWGPGTLVTVSS VL: DIVMTQTPASVEAAVGGTVTIKCQASQSISSWLAWYQQKPGQPPKLLIYDASDLASGVPSRFKGSGSGTEFTLTISDLESADAATYYCQSYLYVESGSHGFGFGGGTEVVVR , is 0.0216

IC50 recorded for this binder, P043.A.00095.D06 (protein sample ID 470) (antibody, V domains shown, also called S1 targeting antibody 470; anti-S1-antibody 470) VH: QEQLEESGGDLVKPEGSLTLTCTASGFSFSSNYWICWVRQAPGKGLEWIGCIYIGSGDTYYASWAKGRFTISKTSSTTVTLQMTSLTAADTATYFCARSYTPGSYYNMNLWGPGTLVTVSS VL: DVVMTQTPSSVSAAVGGTVTINCQASQQISNELSWYQQKSGQPPKLLIYDASDLASGVPSRFKGSGSGTEFTLTISDLESADAATYYCQSTGGASSDGNAFGGGTEVVVK , is 0.0196
